- experimentDescription: In vivo kinetics experiment (radioactivity distribution)
- Design: species or system Wistar male rat
- conditionContext: 10 min after administration; rat i.v.; mean ± SD
Would you kindly list Radioactivity distribution Bladder (including urine) for each of these compounds?
Remember to put the unit after the number in your answer.

stdin: Which value of Radioactivity distribution Bladder (including urine) has been reported for CCn1c(-c2cncc(Cn3ccnc3)c2)nc2ccc([123I])cc21 [[^123I] 608] in the records?
stdout: 0.82 ± 0.43 % ID/g

stdin: Which value of Radioactivity distribution Bladder (including urine) has been reported for FCCn1c(-c2cncc(Cn3ccnc3)c2)nc2ccc([123I])cc21 [[^123I] 604] in the records?
stdout: 0.43 ± 0.13 % ID/g

stdin: Which value of Radioactivity distribution Bladder (including urine) has been reported for COc1cc([123I])cc2c1nc(-c1cncc(Cn3ccnc3)c1)n2C1CC1 [[^123I] 609] in the records?
stdout: 0.17 ± 0.08 % ID/g

stdin: Which value of Radioactivity distribution Bladder (including urine) has been reported for Fc1cc2nc(-c3cncc(Cn4ccnc4)c3)n(Cc3ccc([123I])cc3)c2cc1Cl [[^123I] 605] in the records?
stdout: 0.09 ± 0.06 % ID/g

stdin: Which value of Radioactivity distribution Bladder (including urine) has been reported for Cn1c(-c2cncc(Cn3ccnc3)c2)nc2ccc([123I])cc21 [[^123I] 607] in the records?
stdout: 1.20 ± 0.71 % ID/g

stdin: Which value of Radioactivity distribution Bladder (including urine) has been reported for COC(=O)c1cncn1[C@H](C)c1ccc(I)cc1 [[^123I] IMTO, (R)-[^123I]iodometomidate, reference compound] in the records?
stdout: 0.25 ± 0.27 % ID/g

stdin: Which value of Radioactivity distribution Bladder (including urine) has been reported for FCCn1c(-c2cncc(Cn3cncc3[123I])c2)nc2cc(F)c(Cl)cc21 [[^123I] 610] in the records?
stdout: 0.22 ± 0.08 % ID/g

stdin: Which value of Radioactivity distribution Bladder (including urine) has been reported for CC(C)n1c(-c2cncc(Cn3ccnc3)c2)nc2ccc([123I])cc21 [[^123I] 606] in the records?
stdout: 0.27 ± 0.01 % ID/g

###

- experimentDescription: In vivo kinetics experiment (radioactivity distribution)
- Set-up: species or system Wistar male rat
- conditionContext: 10 min after administration; rat i.v.; mean ± SD
Would you kindly list Adrenal gland/liver ratio of radioactivity accumulation for each of these molecules?
Format: numeric value only, no unit, no commentary.

stdin: Which value of Adrenal gland/liver ratio of radioactivity accumulation has been reported for Cn1c(-c2cncc(Cn3ccnc3)c2)nc2ccc([123I])cc21 [[^123I] 607] in the records?
stdout: 3.85

stdin: Which value of Adrenal gland/liver ratio of radioactivity accumulation has been reported for Fc1cc2nc(-c3cncc(Cn4ccnc4)c3)n(Cc3ccc([123I])cc3)c2cc1Cl [[^123I] 605] in the records?
stdout: 1.38

stdin: Which value of Adrenal gland/liver ratio of radioactivity accumulation has been reported for CCn1c(-c2cncc(Cn3ccnc3)c2)nc2ccc([123I])cc21 [[^123I] 608] in the records?
stdout: 2.86

stdin: Which value of Adrenal gland/liver ratio of radioactivity accumulation has been reported for CC(C)n1c(-c2cncc(Cn3ccnc3)c2)nc2ccc([123I])cc21 [[^123I] 606] in the records?
stdout: 4.02

stdin: Which value of Adrenal gland/liver ratio of radioactivity accumulation has been reported for FCCn1c(-c2cncc(Cn3cncc3[123I])c2)nc2cc(F)c(Cl)cc21 [[^123I] 610] in the records?
stdout: 3.68

stdin: Which value of Adrenal gland/liver ratio of radioactivity accumulation has been reported for COc1cc([123I])cc2c1nc(-c1cncc(Cn3ccnc3)c1)n2C1CC1 [[^123I] 609] in the records?
stdout: 1.55

stdin: Which value of Adrenal gland/liver ratio of radioactivity accumulation has been reported for FCCn1c(-c2cncc(Cn3ccnc3)c2)nc2ccc([123I])cc21 [[^123I] 604] in the records?
stdout: 2.48

stdin: Which value of Adrenal gland/liver ratio of radioactivity accumulation has been reported for COC(=O)c1cncn1[C@H](C)c1ccc(I)cc1 [[^123I] IMTO, (R)-[^123I]iodometomidate, reference compound] in the records?
stdout: 6.72
